# assayed_system: Coagulation factor X (Homo sapiens, UniProt P00742)
# Sequence (P00742 41-179 limits assumed): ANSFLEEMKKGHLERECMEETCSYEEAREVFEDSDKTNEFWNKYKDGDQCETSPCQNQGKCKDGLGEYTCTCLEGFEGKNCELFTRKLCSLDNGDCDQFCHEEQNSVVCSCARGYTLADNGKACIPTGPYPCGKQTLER
# Sequence (P00742 235-488 limits assumed): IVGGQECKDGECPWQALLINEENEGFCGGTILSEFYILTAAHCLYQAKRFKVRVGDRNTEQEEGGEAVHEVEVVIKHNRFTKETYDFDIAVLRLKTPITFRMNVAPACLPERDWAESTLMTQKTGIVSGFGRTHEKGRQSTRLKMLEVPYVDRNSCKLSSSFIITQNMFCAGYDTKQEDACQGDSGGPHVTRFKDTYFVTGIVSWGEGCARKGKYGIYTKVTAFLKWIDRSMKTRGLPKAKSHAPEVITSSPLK
Reported Ki is given for each of the following compounds.

{"columns": ["chemical_string", "assayed_system", "Ki"],
 "data": [
  ["NC(N)=Nc1ccc(NC(=O)c2cc3ccccc3cc2O)cc1", "Coagulation factor X (Homo sapiens, UniProt P00742)", "> 450 µM"],
  ["Nc1nc2cc(NC(=O)c3cccc(-c4ccccc4)c3O)ccc2[nH]1", "Coagulation factor X (Homo sapiens, UniProt P00742)", "> 450 µM"]
]}

* * *

# assayed_system: Urokinase-type plasminogen activator (Homo sapiens, UniProt P00749)
pKi: −log10 of the molar value.
quantity_kind: pKi

{"columns": ["chemical_string", "observed"],
 "data": [
  ["N=C(N)c1cc2nc(-c3cccc(-c4ccccc4)c3O)[nH]c2cc1F", 6.43],
  ["N=C(N)c1ccc2[nH]c(-c3cccc(-c4ccccc4)c3O)cc2c1", 7.48]
]}

* * *

pKi: −log10 of the molar value.
Each entry below carries its measured pKi, system: Plasminogen (Homo sapiens).
Sequence (P00747 97-580 limits assumed): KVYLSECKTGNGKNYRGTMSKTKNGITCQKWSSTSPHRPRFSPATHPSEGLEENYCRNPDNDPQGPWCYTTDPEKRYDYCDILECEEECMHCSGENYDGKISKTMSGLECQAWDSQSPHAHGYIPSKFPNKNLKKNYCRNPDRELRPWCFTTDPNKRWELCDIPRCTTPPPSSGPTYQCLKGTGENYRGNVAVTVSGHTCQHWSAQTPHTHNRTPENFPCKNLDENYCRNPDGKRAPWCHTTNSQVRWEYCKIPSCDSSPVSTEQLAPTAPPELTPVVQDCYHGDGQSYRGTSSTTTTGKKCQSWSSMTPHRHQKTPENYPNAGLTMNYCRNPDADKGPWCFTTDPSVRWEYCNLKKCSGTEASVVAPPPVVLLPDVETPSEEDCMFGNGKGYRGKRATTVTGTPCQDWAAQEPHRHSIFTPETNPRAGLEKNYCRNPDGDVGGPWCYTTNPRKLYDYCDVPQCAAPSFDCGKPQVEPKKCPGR
Sequence (P00747 581-810 limits assumed): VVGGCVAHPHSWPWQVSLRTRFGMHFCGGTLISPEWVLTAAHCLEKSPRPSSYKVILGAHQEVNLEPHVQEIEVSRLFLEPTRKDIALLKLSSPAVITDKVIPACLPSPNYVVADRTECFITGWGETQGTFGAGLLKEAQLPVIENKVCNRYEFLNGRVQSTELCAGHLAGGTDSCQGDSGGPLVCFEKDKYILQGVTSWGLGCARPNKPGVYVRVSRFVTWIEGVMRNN
quantity_kind: pKi

{"columns": ["chemical_string", "censoring_sign", "observed"],
 "data": [
  ["N=C(N)Nc1ccc(NC(=O)c2cc3ccccc3cc2O)cn1", "=", 3.89],
  ["NC(N)=Nc1ccc(NC(=O)c2cc3ccccc3c(O)c2O)cn1", "=", 5.40],
  ["Nc1nc2cc(NC(=O)c3cc4ccccc4cc3O)ccc2[nH]1", "<", 4.12],
  ["NC(N)=Nc1ccc(NC(=O)c2cc3ccccc3cc2O)cc1", "=", 3.89]
]}

* * *

Reported pKi is given for each of the following compounds.
# assayed_system: Urokinase-type plasminogen activator [179-431,I214M,N322A,S371A] (Homo sapiens, UniProt P00749, I214M/N322A/S371A)
# Construct: 179-431
# procedure_details: Enzyme Assay and Determination of the Inhibition Constants
pKi: −log10 of the molar value.

{"columns": ["chemical_string", "pKi"],
 "data": [
  ["N=C(N)Nc1ccc(NC(=O)c2cc3ccccc3cc2O)cn1", 5.96],
  ["CC(C)COc1cccc(-c2nc3ccc(C(=N)N)cc3[nH]2)c1O", 5.41],
  ["Nc1nc2cc(NC(=O)c3cc4ccccc4cc3O)ccc2[nH]1", 4.38]
]}

* * *

# assayed_system: Tryptase beta-2 (Homo sapiens, UniProt P20231)
# Sequence (P20231 as listed by the source): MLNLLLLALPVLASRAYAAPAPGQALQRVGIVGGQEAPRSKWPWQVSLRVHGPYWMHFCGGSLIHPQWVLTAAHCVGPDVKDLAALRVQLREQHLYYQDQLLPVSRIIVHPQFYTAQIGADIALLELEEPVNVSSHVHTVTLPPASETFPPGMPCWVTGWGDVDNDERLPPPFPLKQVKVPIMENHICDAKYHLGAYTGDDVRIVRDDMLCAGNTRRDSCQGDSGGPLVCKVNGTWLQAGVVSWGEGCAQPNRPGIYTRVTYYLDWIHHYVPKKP

{"columns": ["chemical_string", "Ki [nM]"],
 "data": [
  ["NC(N)=Nc1ccc(NC(=O)c2cc3ccccc3cc2O)cc1", 2000]
]}

* * *

# assayed_system: Urokinase-type plasminogen activator [179-431,I214M,N322A,S371A] (Homo sapiens, UniProt P00749, I214M/N322A/S371A)
# Construct: 179-431
# procedure_details: Enzyme Assay and Determination of the Inhibition Constants
pKi: −log10 of the molar value.
Decide by pKi: equal to or exceeding 5 means YES, less means NO.

{"columns": ["chemical_string", "classification"],
 "data": [
  ["CC(C)COc1cccc(-c2nc3cc(F)c(C(=N)N)cc3[nH]2)c1O", "NO"],
  ["N=C(N)c1ccc2nc(-c3cccc(OC4CCCC4)c3O)[nH]c2c1", "YES"],
  ["NC(N)=Nc1ccc(NC(=O)c2cc3ccccc3c(O)c2O)cn1", "YES"],
  ["N=C(N)c1cc2nc(-c3cccc(-c4ccccc4)c3O)[nH]c2cc1F", "NO"]
]}
